molecular target: Sterol 14-alpha demethylase (Trypanosoma cruzi (strain CL Brener)) (UniProt Q7Z1V1); assay: TcCYP51 inhibitors, dose response, mechanism study for T. cruzi antiparasitic project, biochemical, recombinant enzyme (AID 1159558);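 note: enzyme in bacterial membranes with Anopheles gambiae CYP reductase and cytochrome b5 partners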; conditions: recombinant T. cruzi CYP51, BOMCC fluorescence
Sequence (Q7Z1V1 whole entry, looked up): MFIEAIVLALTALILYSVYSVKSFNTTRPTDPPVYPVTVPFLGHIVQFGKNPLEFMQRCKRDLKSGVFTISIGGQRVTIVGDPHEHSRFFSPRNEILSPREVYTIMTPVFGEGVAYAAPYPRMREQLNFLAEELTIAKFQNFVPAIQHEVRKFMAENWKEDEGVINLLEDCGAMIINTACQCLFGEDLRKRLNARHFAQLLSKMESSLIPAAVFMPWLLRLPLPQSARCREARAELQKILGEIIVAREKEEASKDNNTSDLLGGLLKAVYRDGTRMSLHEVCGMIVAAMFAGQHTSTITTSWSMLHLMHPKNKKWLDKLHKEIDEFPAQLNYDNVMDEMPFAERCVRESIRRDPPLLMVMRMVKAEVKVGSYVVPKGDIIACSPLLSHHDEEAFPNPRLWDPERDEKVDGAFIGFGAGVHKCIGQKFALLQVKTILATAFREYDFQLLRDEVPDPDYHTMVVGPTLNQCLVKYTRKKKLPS
Active and inactive are the calls of the source.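 Rule for the calls: active = IC50 against T. cruzi CYP51 below a set limit; inactive = the rest.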
Outcomes: active, inactive

[
  {
    "compound": "c1ccc(-c2nc(NC3CCCCC3)cc(C3CC3)n2)nc1",
    "assignedLabel": "inactive"
  },
  {
    "compound": "CCN(Cc1cccs1)C(=O)CSc1nnc(-c2ccc3c(c2)OCO3)o1",
    "assignedLabel": "active"
  },
  {
    "compound": "O=C(NC(c1ccc(Cl)cc1)c1cnccn1)C1CCN(C(=O)Nc2cccc(C(F)(F)F)c2)CC1 (configuration not stated)",
    "assignedLabel": "active"
  },
  {
    "compound": "CN(C)S(=O)(=O)c1cccc(C(=O)Nc2nc(-c3ccccn3)cs2)c1",
    "assignedLabel": "active"
  },
  {
    "compound": "O=C(CSc1nnc2ccc(-c3ccc(F)cc3)nn12)N1CCCCC1",
    "assignedLabel": "inactive"
  },
  {
    "compound": "CCN(CC)c1ccc(S(=O)(=O)N(CC)CC)c2nonc12",
    "assignedLabel": "active"
  },
  {
    "compound": "N#Cc1cc(N2CCCC2=O)ccc1Sc1ccccc1CO",
    "assignedLabel": "active"
  },
  {
    "compound": "COc1ccc([N+](=O)[O-])cc1NC(=O)c1cc(Cl)ccc1O",
    "assignedLabel": "inactive"
  },
  {
    "compound": "N#Cc1ccc(S(=O)(=O)N2CCC3(CCN(c4ccccc4)C3=O)CC2)cc1",
    "assignedLabel": "inactive"
  },
  {
    "compound": "COCCn1c(-c2ccc3c(c2)OCO3)cnc1NCc1ccccc1OC",
    "assignedLabel": "active"
  },
  {
    "compound": "CNc1cc(C)nc(C2CN(C(=O)c3n[nH]c4ccccc34)CCO2)c1 (configuration not stated)",
    "assignedLabel": "inactive"
  },
  {
    "compound": "COc1ccc(S(=O)(=O)Nc2ccccc2OC)cc1NC(=O)CCCc1c[nH]c2ccccc12",
    "assignedLabel": "inactive"
  },
  {
    "compound": "CN(Cc1cc2ccccc2s1)c1ncc2c(N)nc(N)nc2n1",
    "assignedLabel": "inactive"
  },
  {
    "compound": "COc1cccc(NS(=O)(=O)c2ccc3[nH]cc(C(=O)NCCC(C)C)c(=O)c3c2)c1",
    "assignedLabel": "active"
  },
  {
    "compound": "Cc1nc2c(-c3n[nH]c(-c4ccccc4N)n3)cccn2c1C",
    "assignedLabel": "active"
  },
  {
    "compound": "N#Cc1c(Oc2cccc(Cl)c2)cccc1[N+](=O)[O-]",
    "assignedLabel": "inactive"
  },
  {
    "compound": "O=C(c1ccc(Cl)cc1)c1ccc(OC(=O)N2CCOCC2)cc1",
    "assignedLabel": "active"
  },
  {
    "compound": "CN(C)CCN(C)Cc1ccc(F)cc1NS(=O)(=O)c1ccc(Cl)c(Cl)c1",
    "assignedLabel": "inactive"
  },
  {
    "compound": "CC(=O)Nc1ccc(CN2CCC(N3CC(c4ccccc4)(c4ccccc4)OCC3=O)CC2)cc1",
    "assignedLabel": "inactive"
  },
  {
    "compound": "O=c1oc2ccccc2n1C1CCN(Cc2ccccc2-c2cccnc2)CC1",
    "assignedLabel": "active"
  },
  {
    "compound": "COc1ccc2c(Cl)c(C(=O)N3CCC3)sc2c1Cl",
    "assignedLabel": "inactive"
  },
  {
    "compound": "Cc1cc(Oc2cc(Cl)c(Cl)cc2Cl)n2ncnc2n1",
    "assignedLabel": "inactive"
  }
]

meta.source: PubChem BioAssay AID1159558
